# System: 786-O cells
# procedure details: Dose-dependent anti-proliferative effects on 786-O cells (dose response)
# Assay type: cell-based, human
# reported conditions: Homo sapiens, 786-0, single drug dose response, read-out: ED50 (the source's name)
quantity name: EC50

compound: NC(=O)N1CCC(CC(=O)N2CCC([C@H]3c4ncc(Br)cc4CCc4cc(Cl)cc(Br)c43)CC2)CC1
EC50: 3.8 µM

q: Item CCN(CC)CCNC(=O)c1c(C)[nH]c(/C=C2\C(=O)Nc3ccc(F)cc32)c1C with 786-O cells - EC50?
a: 2.4 µM
